Every entry's value here was drawn from ChEMBL document CHEMBL3400103.

- tested-system: Protease (Human immunodeficiency virus 1)
- Sequence (Q9YQ12 whole entry): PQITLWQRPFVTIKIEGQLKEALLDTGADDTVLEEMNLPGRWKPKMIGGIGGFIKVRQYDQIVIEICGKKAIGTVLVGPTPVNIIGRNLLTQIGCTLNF
pIC50: −log10 of the molar value.
Outcome label depends on pIC50 relative to 6: at/above gives condition met, below gives condition not met.

Has `Cc1c(O)cccc1N(CC(=O)N[C@@H](Cc1ccccc1)[C@H](O)CN(CC(C)C)S(=O)(=O)c1ccc(CO)cc1)CC(=O)N(C)C` a recorded pIC50 greater than or equal to 6?
condition met

# check: pIC50 of `Cc1c(O)cccc1N(CC(=O)N[C@@H](Cc1ccccc1)[C@H](O)CN(CC(C)C)S(=O)(=O)c1ccc([N+](=O)[O-])cc1)CC(=O)N(C)C` is greater than or equal to 6
condition met

API: above_or_equal(metric=pIC50, cutoff=6) for item `COc1ccc(N(CC(=O)N[C@@H](Cc2ccccc2)[C@@H](O)CN(CC(C)C)S(=O)(=O)c2ccc(N)cc2)CC(=O)N2CCOCC2)cc1`
condition not met

Is it the case that `COc1ccc(N(CC(=O)N[C@@H](Cc2ccccc2)[C@H](O)CN(CC(C)C)S(=O)(=O)c2ccc(OC)cc2)CC(=O)N2CCOCC2)cc1` has pIC50 reaching or exceeding 6?
condition met

Textbook exercise: given the entry `COc1ccc(N(CC(=O)N[C@@H](Cc2ccccc2)[C@@H](O)CN(CC(C)C)S(=O)(=O)c2ccc(OC)cc2)CC(=O)N(C)C)cc1` , state whether its pIC50 is greater than or equal to 6.
condition not met

# bool: pIC50 of `COc1ccc(N(CC(=O)N[C@@H](Cc2ccccc2)[C@H](O)CN(CC(C)C)S(=O)(=O)c2ccc([N+](=O)[O-])cc2)CC(=O)N(C)C)cc1` >= 6
condition met
